# kinase still bound, per cent of control listing for each entry below
# System Name: RAF1 (human) (UniProt P04049)
# Sequence (P04049 whole entry, looked up): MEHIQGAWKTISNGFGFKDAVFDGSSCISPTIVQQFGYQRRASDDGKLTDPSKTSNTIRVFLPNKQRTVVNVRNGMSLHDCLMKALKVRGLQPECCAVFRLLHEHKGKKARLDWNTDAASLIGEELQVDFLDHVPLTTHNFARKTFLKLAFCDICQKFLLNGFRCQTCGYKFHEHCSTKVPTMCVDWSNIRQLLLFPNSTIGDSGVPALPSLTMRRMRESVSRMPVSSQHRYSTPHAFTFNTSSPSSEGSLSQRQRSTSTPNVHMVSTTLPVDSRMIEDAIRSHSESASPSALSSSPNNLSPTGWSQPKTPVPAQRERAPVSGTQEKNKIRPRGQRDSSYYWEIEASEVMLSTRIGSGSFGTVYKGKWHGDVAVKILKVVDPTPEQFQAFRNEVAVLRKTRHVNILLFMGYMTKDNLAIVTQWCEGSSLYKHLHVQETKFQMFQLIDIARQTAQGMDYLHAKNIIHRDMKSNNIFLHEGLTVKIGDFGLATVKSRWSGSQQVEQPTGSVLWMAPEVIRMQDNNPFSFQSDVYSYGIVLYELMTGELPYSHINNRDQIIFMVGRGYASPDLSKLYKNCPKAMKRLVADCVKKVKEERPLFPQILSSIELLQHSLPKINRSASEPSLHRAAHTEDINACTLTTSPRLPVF
# Test Protocol: KINOMEscan competition binding
# Test Parameters: compound 10.0 µM

- Molecule: "CN1CCN(c2ccc(C(=O)Nc3ncc4c(n3)N(C)c3ccccc3C(=O)N4C)cc2)CC1"
  Unit Name: "%"
  kinase still bound, per cent of control: 100
- Molecule: "N=C1NC(=O)/C(=C/c2ccc(-c3csc4ccccc34)o2)S1"
  Unit Name: "%"
  kinase still bound, per cent of control: 33
- Molecule: "CN1C(=O)c2ccccc2N(C)c2nc(Nc3ccc(N4CCC(O)CC4)cc3)ncc21"
  Unit Name: "%"
  kinase still bound, per cent of control: 100
- Molecule: "COc1cc(N2CCN(C)CC2)ccc1Nc1ncc2c(n1)Nc1ccccc1NC2=O"
  Unit Name: "%"
  kinase still bound, per cent of control: 89
- Molecule: "CCN(CC)C1CCN(c2ccc(Nc3ncc4c(n3)N3CCCC3C=CN4C)c(OC(C)C)c2)CC1 (stereo not given)"
  Unit Name: "%"
  kinase still bound, per cent of control: 0
